- System: Saccharomyces cerevisiae
- runDescription: protein stability index of tFT-peptide fusion (C-terminal peptide) (PSI (0-1 scale)); higher = more stable (slower turnover)
- testSettings: genetic background: wild type; temperature: 30 C
Each item that follows carries a reported protein stability index.

{"macromoleculeSequence": "NPLRTQASTTAQ", "protein stability index": 0.72}
{"macromoleculeSequence": "KKEKKQRKKING", "protein stability index": 0.672}
{"macromoleculeSequence": "VGGGPAALGMWI", "protein stability index": 0.689}
{"macromoleculeSequence": "HCLGWCFSRLSS", "protein stability index": 0.289}
{"macromoleculeSequence": "PPPSALPPLPQP", "protein stability index": 0.712}
{"macromoleculeSequence": "REVRRNINKRRE", "protein stability index": 0.67}
{"macromoleculeSequence": "GINRLRNKEKEE", "protein stability index": 0.775}
{"macromoleculeSequence": "PPLFTLSFSHFV", "protein stability index": 0.679}
{"macromoleculeSequence": "PVPRVPLYFPLV", "protein stability index": 0.675}
{"macromoleculeSequence": "HGGEPHPSFGFS", "protein stability index": 0.697}
{"macromoleculeSequence": "CSSLIMIITCVN", "protein stability index": 0.199}
{"macromoleculeSequence": "FCCSVFCFLCLY", "protein stability index": 0.504}
{"macromoleculeSequence": "GSGDFWRLCISL", "protein stability index": 0.785}
{"macromoleculeSequence": "VFSVTVVFVSVL", "protein stability index": 0.298}
{"macromoleculeSequence": "EFPPPPSSRSCA", "protein stability index": 0.712}
{"macromoleculeSequence": "QYFRKRVLKELP", "protein stability index": 0.671}
{"macromoleculeSequence": "RKEESKKEKNKI", "protein stability index": 0.65}
{"macromoleculeSequence": "FSRAPHFSGRLC", "protein stability index": 0.502}
{"macromoleculeSequence": "GVAAGPAVRVLT", "protein stability index": 0.669}
{"macromoleculeSequence": "RRRRGGQSPALR", "protein stability index": 0.711}
{"macromoleculeSequence": "LHSDHLRIILRI", "protein stability index": 0.514}
{"macromoleculeSequence": "QKHGARISSQKK", "protein stability index": 0.703}
{"macromoleculeSequence": "ELIDGKLLRHRQ", "protein stability index": 0.733}
{"macromoleculeSequence": "KILAVKIRRLYL", "protein stability index": 0.532}
{"macromoleculeSequence": "LTLPPLPPPSLP", "protein stability index": 0.707}
{"macromoleculeSequence": "YWVPPDTIKSAI", "protein stability index": 0.736}
{"macromoleculeSequence": "DSHEEGVSVAPA", "protein stability index": 0.749}
{"macromoleculeSequence": "PLPPPLPASSPP", "protein stability index": 0.681}
{"macromoleculeSequence": "GVPFSLGPPPSR", "protein stability index": 0.669}
{"macromoleculeSequence": "GCVTFVLISFCA", "protein stability index": 0.358}
{"macromoleculeSequence": "RPPIGTLCSINF", "protein stability index": 0.614}
{"macromoleculeSequence": "GGAVAVRGGSAA", "protein stability index": 0.636}
{"macromoleculeSequence": "SPPAPSLPTFPP", "protein stability index": 0.617}
{"macromoleculeSequence": "LRFLPHIPSGLS", "protein stability index": 0.716}
{"macromoleculeSequence": "QTYNKRKGAIRA", "protein stability index": 0.616}
{"macromoleculeSequence": "ALAQQSPLPTRP", "protein stability index": 0.703}
{"macromoleculeSequence": "SSLVAFPPLPAP", "protein stability index": 0.731}
{"macromoleculeSequence": "YGCPSSSSVLDG", "protein stability index": 0.812}
{"macromoleculeSequence": "LCACRMVGFRGG", "protein stability index": 0.538}
{"macromoleculeSequence": "RSFRCWVQGYCG", "protein stability index": 0.654}
{"macromoleculeSequence": "WLESHVSRGLTT", "protein stability index": 0.64}

* * *

- Tested on: Saccharomyces cerevisiae;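 further: PSI is a weighted mean of sequencing reads over stability bins, variants kept only with over 10 reads, mCherry proximal and sfGFP distal, peptide attached via GGGS linker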
- runDescription: protein stability index of tFT-peptide fusion (C-terminal peptide) (PSI (0-1 scale)); higher = more stable (slower turnover)
- testSettings: genetic background: wild type; temperature: 30 C
Everything with protein stability index lower than 0.7 is -1; everything else, including exactly 0.7, is 1.

{"macromoleculeSequence": "VGASRAGGEVSR", "assayedTarget": "Saccharomyces cerevisiae", "classAssignment": -1}
{"macromoleculeSequence": "ASLEASFYVVPC", "assayedTarget": "Saccharomyces cerevisiae", "classAssignment": -1}
{"macromoleculeSequence": "VISLFSSLCSRL", "assayedTarget": "Saccharomyces cerevisiae", "classAssignment": 1}
{"macromoleculeSequence": "PLALARSPPPSP", "assayedTarget": "Saccharomyces cerevisiae", "classAssignment": -1}
{"macromoleculeSequence": "LFYVCPFVCFLC", "assayedTarget": "Saccharomyces cerevisiae", "classAssignment": -1}
{"macromoleculeSequence": "YPPREEPREDLA", "assayedTarget": "Saccharomyces cerevisiae", "classAssignment": -1}
{"macromoleculeSequence": "RREKRPMKKGGR", "assayedTarget": "Saccharomyces cerevisiae", "classAssignment": -1}
{"macromoleculeSequence": "QCLFPVAYYLTP", "assayedTarget": "Saccharomyces cerevisiae", "classAssignment": -1}
{"macromoleculeSequence": "RGSFGAWTVGGQ", "assayedTarget": "Saccharomyces cerevisiae", "classAssignment": -1}
{"macromoleculeSequence": "VGGVWAGGGCSF", "assayedTarget": "Saccharomyces cerevisiae", "classAssignment": -1}
{"macromoleculeSequence": "RKLYMCMRTKGD", "assayedTarget": "Saccharomyces cerevisiae", "classAssignment": -1}
{"macromoleculeSequence": "SVYFSLITRPYY", "assayedTarget": "Saccharomyces cerevisiae", "classAssignment": -1}
{"macromoleculeSequence": "GDRSKECAMKNG", "assayedTarget": "Saccharomyces cerevisiae", "classAssignment": -1}
{"macromoleculeSequence": "CTGSRPPPDCAV", "assayedTarget": "Saccharomyces cerevisiae", "classAssignment": -1}
{"macromoleculeSequence": "PTLPACFCPPAP", "assayedTarget": "Saccharomyces cerevisiae", "classAssignment": -1}
{"macromoleculeSequence": "LWGLVGVCLVLC", "assayedTarget": "Saccharomyces cerevisiae", "classAssignment": -1}
{"macromoleculeSequence": "AKREGGGYSEDN", "assayedTarget": "Saccharomyces cerevisiae", "classAssignment": -1}
{"macromoleculeSequence": "RLLRDFQSVGGD", "assayedTarget": "Saccharomyces cerevisiae", "classAssignment": -1}
{"macromoleculeSequence": "LLAHLVIWAPSR", "assayedTarget": "Saccharomyces cerevisiae", "classAssignment": -1}
{"macromoleculeSequence": "IKWRCLFCVCVL", "assayedTarget": "Saccharomyces cerevisiae", "classAssignment": -1}
{"macromoleculeSequence": "WLCLARGRLGLH", "assayedTarget": "Saccharomyces cerevisiae", "classAssignment": -1}
{"macromoleculeSequence": "RLCLFPVAPLLS", "assayedTarget": "Saccharomyces cerevisiae", "classAssignment": -1}
{"macromoleculeSequence": "YHMNSSLLCLLW", "assayedTarget": "Saccharomyces cerevisiae", "classAssignment": -1}
{"macromoleculeSequence": "GRSASDTRGLGL", "assayedTarget": "Saccharomyces cerevisiae", "classAssignment": -1}
{"macromoleculeSequence": "GMQPRGVRRATS", "assayedTarget": "Saccharomyces cerevisiae", "classAssignment": 1}
{"macromoleculeSequence": "WLSAGAWGAVIL", "assayedTarget": "Saccharomyces cerevisiae", "classAssignment": 1}
{"macromoleculeSequence": "NFTDMGRSLYIN", "assayedTarget": "Saccharomyces cerevisiae", "classAssignment": -1}
{"macromoleculeSequence": "TKQIKKNKHKRA", "assayedTarget": "Saccharomyces cerevisiae", "classAssignment": 1}
{"macromoleculeSequence": "PPPPPPTPPSLS", "assayedTarget": "Saccharomyces cerevisiae", "classAssignment": 1}
{"macromoleculeSequence": "SSFRRFVLVGFE", "assayedTarget": "Saccharomyces cerevisiae", "classAssignment": -1}
